Reference source: ChEMBL document CHEMBL3301472

- method-summary: MMV: MTT Cytotoxicity Assay Day 3 pi, U87-CD4-CXCR4 cells, % cell death @ 5mM compound
- Assay type: toxicity, cell-based
- condition-details: human, u87-cd4-cxcr4, 5000 µM
Mark each entry fulfilled if its % Cell Death sits below 30, and not fulfilled for all others.

Please review the following examples before continuing.
COc1cccc(Nc2nc(NCCO)c3ccccc3n2)c1.Cl: fulfilled
c1ccc(-c2ccc(-c3nc4ccccc4[nH]3)cc2)cc1: fulfilled
COc1ccc2nc(C)cc(Nc3ccc(Cl)cc3)c2c1: not fulfilled

Quick check: % Cell Death of Br.CCN(CC)S(=O)(=O)c1ccc(-c2csc(Nc3ccc(C)c(C)c3)n2)cc1 under 30?
fulfilled

Quick check: % Cell Death of COCCNC(=O)c1ccc(OC2CCN(Cc3ccc(F)c(F)c3)CC2)c(Cl)c1 under 30?
fulfilled

Quick check: % Cell Death of COc1ccccc1N1C(=N)SC(=Cc2ccc(OCc3ccccc3F)cc2)C1=O under 30?
fulfilled

Quick check: % Cell Death of CCOC(=O)c1c[nH]c2c(CC)cccc2c1=O under 30?
not fulfilled

Quick check: % Cell Death of O=C(NNc1cc(N2CCCC2)nc(N2CCCC2)n1)c1ccccc1 under 30?
fulfilled

Quick check: % Cell Death of CCCCc1c(C)nc2c(OC)cccc2c1O under 30?
not fulfilled

Quick check: % Cell Death of CCOc1ccc2nc(C)cc(Nc3ccc(N(C)C)cc3)c2c1.Cl under 30?
not fulfilled

Quick check: % Cell Death of Cc1ccc(NC(=O)Nc2cccc(Cl)c2)cc1F under 30?
fulfilled
